Reported IC50 values for the following compounds.
# Target Of Assay: Thyroid hormone receptor alpha (Homo sapiens, UniProt P10827)
# Sequence (P10827 whole entry): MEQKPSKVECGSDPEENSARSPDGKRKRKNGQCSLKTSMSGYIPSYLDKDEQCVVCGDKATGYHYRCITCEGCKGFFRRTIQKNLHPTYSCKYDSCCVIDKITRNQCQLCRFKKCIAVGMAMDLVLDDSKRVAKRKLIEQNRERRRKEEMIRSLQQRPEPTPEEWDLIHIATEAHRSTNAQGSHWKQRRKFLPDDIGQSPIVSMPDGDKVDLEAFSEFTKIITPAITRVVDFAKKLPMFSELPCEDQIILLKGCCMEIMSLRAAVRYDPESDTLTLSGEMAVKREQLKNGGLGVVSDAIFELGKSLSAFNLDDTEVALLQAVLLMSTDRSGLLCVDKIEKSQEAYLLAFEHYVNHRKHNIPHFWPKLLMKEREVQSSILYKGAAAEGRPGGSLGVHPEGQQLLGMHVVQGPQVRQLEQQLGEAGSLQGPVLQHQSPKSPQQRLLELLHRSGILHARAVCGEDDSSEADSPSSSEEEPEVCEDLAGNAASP

Compound	Target Of Assay	IC50
Cc1cc2nc(C(=O)O)ccc2c(C)c1Oc1ccc(O)c(C(C)C)c1	Thyroid hormone receptor alpha (Homo sapiens, UniProt P10827)	200 nM
CC(C)c1cc(Oc2c(Br)cc3[nH]c(C(=O)O)cc3c2Br)ccc1O	Thyroid hormone receptor alpha (Homo sapiens, UniProt P10827)	2.5 nM
CC(C)c1cc(Oc2c(Cl)cc3[nH]c(C(=O)O)cc3c2Cl)ccc1O	Thyroid hormone receptor alpha (Homo sapiens, UniProt P10827)	1.4 nM
Cc1cc2[nH]c(C(=O)O)cc(=O)c2c(C)c1Oc1ccc(O)c(C(C)C)c1	Thyroid hormone receptor alpha (Homo sapiens, UniProt P10827)	620 nM
CC(C)c1cc(Oc2c(Br)cc3nc(C(=O)O)cc(O)c3c2Br)ccc1O	Thyroid hormone receptor alpha (Homo sapiens, UniProt P10827)	250 nM
CC(C)c1cc(Oc2c(Br)cc3c(c2Br)CC(C(=O)O)C3)ccc1O (configuration not stated)	Thyroid hormone receptor alpha (Homo sapiens, UniProt P10827)	38 nM
CC(C)c1cc(Oc2c(Cl)cc3[nH]c(C(=O)O)cc(=O)c3c2Cl)ccc1O	Thyroid hormone receptor alpha (Homo sapiens, UniProt P10827)	3500 nM

---

# Target Of Assay: Thyroid hormone receptor beta (Homo sapiens)
# Sequence (P10828 whole entry): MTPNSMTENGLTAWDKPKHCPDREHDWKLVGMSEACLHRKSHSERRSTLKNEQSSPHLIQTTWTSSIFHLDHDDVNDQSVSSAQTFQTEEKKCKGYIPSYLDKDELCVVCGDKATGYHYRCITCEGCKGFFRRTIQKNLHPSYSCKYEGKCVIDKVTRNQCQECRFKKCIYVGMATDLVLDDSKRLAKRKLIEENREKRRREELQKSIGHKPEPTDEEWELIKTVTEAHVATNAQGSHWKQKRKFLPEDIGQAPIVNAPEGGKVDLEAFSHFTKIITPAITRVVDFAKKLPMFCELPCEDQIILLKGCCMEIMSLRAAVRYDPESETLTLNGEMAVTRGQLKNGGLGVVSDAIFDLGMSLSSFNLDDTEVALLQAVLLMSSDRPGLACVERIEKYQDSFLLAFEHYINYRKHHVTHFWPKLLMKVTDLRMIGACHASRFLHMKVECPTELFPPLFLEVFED
Below, each of the compounds is paired with its reported EC50 value.

Compound	EC50 (nM)
Cc1cc2nc(C(=O)O)ccc2c(C)c1Oc1ccc(O)c(C(C)C)c1	49
CC(C)c1cc(Oc2c(Br)cc3[nH]c(C(=O)O)cc3c2Br)ccc1O	4.2
CC(C)c1cc(Oc2c(Br)cc3c(c2Br)CC(C(=O)O)C3)ccc1O (stereo not drawn)	4.3

---

# EC50 per entry for Thyroid hormone receptor alpha (Homo sapiens)

Molecule	Target Of Assay	EC50 [nM]
CC(C)c1cc(Oc2c(Br)cc3c(c2Br)CC(C(=O)O)C3)ccc1O (centres undefined)	Thyroid hormone receptor alpha (Homo sapiens)	4.1
CC(C)c1cc(Oc2c(Cl)cc3[nH]c(C(=O)O)cc3c2Cl)ccc1O	Thyroid hormone receptor alpha (Homo sapiens)	10
Cc1cc2nc(C(=O)O)ccc2c(C)c1Oc1ccc(O)c(C(C)C)c1	Thyroid hormone receptor alpha (Homo sapiens)	83
CC(C)c1cc(Oc2c(Br)cc3[nH]c(C(=O)O)cc3c2Br)ccc1O	Thyroid hormone receptor alpha (Homo sapiens)	10
